test system: intestinal alkaline phosphatase [Mus musculus]; assay: mouse intestinal phosphatase enzyme inhibition – biochemical, luminescence, uHTS, primary screen (AID 2806); conditions: purified mouse IAP, CDP-Star luminescence, 30 min; at 10 µM;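 further: plate controls were DMSO with enzyme for no effect and no enzyme wells for full effect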
Hit rate of the full screen: of about 330,000 compounds, about 660 (0.2%) were called active.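 How the source made its calls: active means inhibition of at least 40% at 10 µM in the primary screen; inactive means the rest.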 The sample holds actives, similar compounds and a random draw of the others, so the mix is not that of the screen.
Outcome codes: active, inactive

INSERT INTO measurements (compound, class_name) VALUES
  ('CCOc1ccc2[nH]c(C(=O)N/N=C/c3cccc(OC)c3OC)cc2c1', 'inactive'),
  ('CCOC(=O)c1c(C)[nH]c(C)c1C(=O)CSc1nc(N)cc(N)n1', 'inactive'),
  ('O=C(CCCN1C(=O)/C(=C/c2ccco2)SC1=S)Nc1ccccc1', 'active'),
  ('NC(=O)c1ccsc1NC(=O)c1ccco1', 'inactive'),
  ('Cc1ccccc1C(OCCN(C)C)C1CCCCC1 (stereo not drawn)', 'inactive'),
  ('O=C(O)C1OC(C(=O)O)C2C1C(F)(F)C2(F)F (stereo not drawn)', 'inactive'),
  ('O=C(CN1CCN(C(=O)C2CCCO2)CC1)Nc1c(Cl)cccc1Cl (stereo not drawn)', 'inactive'),
  ('NC(=O)C1CCCN(CC(=O)N2CCN(c3ccccc3)CC2)C1 (stereo not drawn)', 'inactive'),
  ('CC1(C)S[C@@H]2[C@H](N=CN3CCCCCC3)C(=O)N2[C@H]1C(=O)O', 'inactive'),
  ('O=C(Nc1nc(-c2ccco2)c(-c2ccco2)s1)c1ccco1', 'active'),
  ('Cc1ccc(N2C(=O)c3ccccc3C2(O)c2ncc[nH]2)cc1 (stereo not drawn)', 'inactive'),
  ('CCOc1ccc(NS(=O)(=O)c2cc(C)c(C)cc2C)cc1', 'inactive'),
  ('Cc1ccc(Cc2cnc(N)s2)o1', 'active'),
  ('COc1ccc(OC)c(NC(=O)Cn2c(=O)oc3ccccc32)c1', 'inactive'),
  ('COc1ccccc1-n1cn[nH]c1=S', 'inactive'),
  ('CSCCC1NC2(C(=O)Nc3ccc(Cl)cc32)[C@@H]2C(=O)N(C3CCCC3)C(=O)[C@H]12 (stereo partly drawn)', 'inactive'),
  ('COc1ccc(OC)c(-n2c(-c3ccn[nH]3)n[nH]c2=S)c1', 'inactive'),
  ('O=S(=O)(NCc1ccc2c(c1)OCO2)c1cccc2nsnc12', 'inactive'),
  ('COc1ccccc1-n1c(-c2cc(-c3ccco3)[nH]n2)n[nH]c1=S', 'active'),
  ('CCN(CC)P(=O)(C(NC(=O)OC)C(F)(F)C(F)(F)C(F)(F)C(F)F)N(CC)CC (stereo not drawn)', 'inactive'),
  ('COc1ccc(/C=C2/SC(=O)N(CCCCCC(=O)Nc3ccccc3C(=O)O)C2=S)cc1', 'inactive'),
  ('O=C1/C(=C\c2ccccc2Cl)SC(=S)N1CCC(=O)N1CCCc2ccccc21', 'inactive'),
  ('O=C(Nc1nnc(CCOCCOCCc2nnc(NC(=O)c3ccco3)s2)s1)c1ccco1', 'inactive');

----------
system: intestinal alkaline phosphatase [Mus musculus]; assay: mouse intestinal phosphatase enzyme inhibition – biochemical, luminescence, uHTS, primary screen (AID 2806); details: purified mouse IAP, CDP-Star luminescence, 30 min; at 10 µM; stronger effect = higher value
In all, about 330,000 compounds went through this assay and about 660 (0.2%) were called active. This is one part of a sample in which actives are shown more often than they occur.
Measure Name: inhibition (%)

INSERT INTO assay_data (molecule, measure_name, unit_descriptor, result_value) VALUES
  ('CC(=O)N1CC[n+]2c(-c3ccc([N+](=O)[O-])cc3)csc21', 'inhibition', '%', 7.9),
  ('CN(C)c1ccc(N/C=C/C(=O)C(F)(F)F)cc1', 'inhibition', '%', 7.4),
  ('Brc1cnc(N2CCCC2)nc1N1CCCCC1', 'inhibition', '%', 1.2),
  ('CCCCn1c(N)c(N(CCOC)C(=O)c2oc3ccc(OC)cc3c2C)c(=O)[nH]c1=O', 'inhibition', '%', -5.8),
  ('Oc1cc(O)c2c(c1)OC(c1ccc(O)c(O)c1)C(O)C2 (stereo not given)', 'inhibition', '%', 75.1),
  ('COC(=O)c1cc(NC(=O)c2nn(C)c(=O)c3ccccc23)cc(C(=O)OC)c1', 'inhibition', '%', -11.6),
  ('CN1C(=O)/C(=C/c2ccco2)SC1=Nc1cccc(C(=O)O)c1', 'inhibition', '%', 9.6),
  ('CC(=O)N1c2ccc(S(=O)(=O)N3CCC(C(=O)NC4CCCC(C)C4C)CC3)cc2CC1C (stereo not given)', 'inhibition', '%', -23.1),
  ('COc1ccc(N2CCN(S(=O)(=O)c3cc4c5c(c3)C(C)C(=O)N5CCC4)CC2)cc1 (stereo not given)', 'inhibition', '%', -7.1),
  ('COc1ccccc1C1C(C(N)=O)=C(C)Nc2nc(CCCO)nn21 (stereo not given)', 'inhibition', '%', -1.6);

----------
system: intestinal alkaline phosphatase [Mus musculus]; assay: mouse intestinal phosphatase enzyme inhibition – biochemical, luminescence, uHTS, primary screen (AID 2806); conditions: purified mouse IAP, CDP-Star luminescence, 30 min; at 10 µM; stronger effect = higher value;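 further: plate controls were DMSO with enzyme for no effect and no enzyme wells for full effect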
The whole screen tested about 330,000 compounds, of which about 660 (0.2%) were called active. Shown is part of a subset that was picked to be rich in actives.
Reported inhibition values follow for various molecules
Measure Name: inhibition (%)

INSERT INTO measurements (molecule, test_system, measure_name, unit_descriptor, result_value) VALUES
  ('CS(=O)(=O)N(CC(=O)NC1CCCC1)Cc1ccc(F)cc1', 'intestinal alkaline phosphatase [Mus musculus]', 'inhibition', '%', 3.3),
  ('Cc1ccc(S(=O)(=O)NCCSC(C)(C)C)cc1', 'intestinal alkaline phosphatase [Mus musculus]', 'inhibition', '%', -3.9),
  ('COc1cc(C2CC(=O)c3cnc(NC(C)=O)nc3C2)cc(OC)c1OC (stereo unspecified)', 'intestinal alkaline phosphatase [Mus musculus]', 'inhibition', '%', 6.1),
  ('CCNC(=O)N1CCN(S(=O)(=O)c2ccc3c(c2)OCCCO3)CC1', 'intestinal alkaline phosphatase [Mus musculus]', 'inhibition', '%', -17.6),
  ('CN(/C(=N/S(=O)(=O)c1cccs1)c1ccccc1)c1ccc(O)cc1', 'intestinal alkaline phosphatase [Mus musculus]', 'inhibition', '%', -15.8),
  ('O=C(Nc1ncc2c(n1)CC(c1ccco1)CC2=O)c1ccc(Cl)cc1 (stereo unspecified)', 'intestinal alkaline phosphatase [Mus musculus]', 'inhibition', '%', 0.8);

----------
system: intestinal alkaline phosphatase [Mus musculus]; experiment: mouse intestinal phosphatase enzyme inhibition – biochemical, luminescence, uHTS, primary screen (AID 2806); conditions: purified mouse IAP, CDP-Star luminescence, 30 min; at 10 µM; stronger effect = higher value;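 further: plate controls were DMSO with enzyme for no effect and no enzyme wells for full effect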
About 660 (0.2%) of roughly 330,000 compounds were called active. For the sample, actives were picked, then their nearest neighbours and some compounds at random.
Reported inhibition values follow for various compounds
Measure Name: inhibition (%)

INSERT INTO assay_data (compound, test_system, result_value) VALUES
  ('CCOc1ccc2nc(Cl)c(C3CC(c4ccccc4)=NN3C(=O)c3cccs3)cc2c1 (stereo unspecified)', 'intestinal alkaline phosphatase [Mus musculus]', 13.7),
  ('C[C@H]1CN([C@@H](C)CO)C(=O)Cc2cc(NC(=O)Cc3ccccc3)ccc2O[C@H]1CN(C)S(=O)(=O)c1cccs1', 'intestinal alkaline phosphatase [Mus musculus]', -5.4),
  ('COc1cccc2[nH]c(C(=O)NCCc3ccccc3)cc12', 'intestinal alkaline phosphatase [Mus musculus]', -19.5),
  ('Cc1ccccc1NC(=O)C1CCCN(C(=O)NCc2ccccc2)C1 (stereo unspecified)', 'intestinal alkaline phosphatase [Mus musculus]', -10.1),
  ('COc1ccc(CNC(=O)C2CCCC2)cc1', 'intestinal alkaline phosphatase [Mus musculus]', 4.3),
  ('Cc1cc(-c2ccc(S(=O)(=O)N3CCc4ccccc4C3)s2)on1', 'intestinal alkaline phosphatase [Mus musculus]', 4.5),
  ('O=C(NCc1cc(C(F)(F)F)cc(C(F)(F)F)c1)C1CC(c2cccc(F)c2)=NO1 (stereo unspecified)', 'intestinal alkaline phosphatase [Mus musculus]', -2.8),
  ('Clc1ccc(CSc2nnc3c(n2)[nH]c2ccccc23)cc1', 'intestinal alkaline phosphatase [Mus musculus]', 12.9),
  ('S=C(NCc1ccco1)NCc1ccccc1Cl', 'intestinal alkaline phosphatase [Mus musculus]', -1),
  ('c1ccc(CSc2nnc(-c3ccco3)c(-c3ccco3)n2)cc1', 'intestinal alkaline phosphatase [Mus musculus]', 49),
  ('Cc1nc(CC(=O)NNS(=O)(=O)c2ccc(F)c(Cl)c2)cs1', 'intestinal alkaline phosphatase [Mus musculus]', 1.6);

----------
Reported inhibition values follow for various compounds
tested on: intestinal alkaline phosphatase [Mus musculus]; test: mouse intestinal phosphatase enzyme inhibition – biochemical, luminescence, uHTS, primary screen (AID 2806); settings: purified mouse IAP, CDP-Star luminescence, 30 min; at 10 µM; stronger effect = higher value;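 further: plate controls were DMSO with enzyme for no effect and no enzyme wells for full effect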
The whole screen tested about 330,000 compounds, of which about 660 (0.2%) were called active. For the sample, actives were picked, then their nearest neighbours and some compounds at random.
Measure Name: inhibition (%)

INSERT INTO measurements (smiles_str, test_system, result_value) VALUES
  ('CC(C)Oc1ccc(CCc2nnc(SCC(=O)O)n2-c2ccccc2)cc1', 'intestinal alkaline phosphatase [Mus musculus]', 3.2),
  ('O=C(COC(=O)c1cnccn1)Nc1ccc(Cl)cc1C(F)(F)F', 'intestinal alkaline phosphatase [Mus musculus]', 4.7),
  ('CCCCC(=O)Nc1ccc2c(c1)C(=O)NC2=O', 'intestinal alkaline phosphatase [Mus musculus]', 7);
